Exercise: state measured cleaved RNA product abundance for each of the sequences provided.
# Test system: Bacillus subtilis
# assay.info: cleaved RNA product abundance (RNA/gDNA barcode ratio) relative to median wild-type variant (ratio to wild type); higher = more accumulation of the downstream cleavage product
# applied.conditions: experiment (reporter, strain, medium): exp 8a: truncated aprE reporter, strain BJT201 with 2% xylose (RNase J1 expressed); cleavage site: glnRA (positions -5 to +31 mutated)

Query: cleaved RNA product abundance; subject: `CGACATGTCCCGCTTCTTTCATTAATCCGTTAGCAACGGTTTTGCTATATACATTTACCTTTTAAGAGGAGGAAT`
0.387

Query: cleaved RNA product abundance; subject: `CGACATGTCCCGCTTCTTTCATTAATACGTTAGCTACTGTTTTGCTATATACATTTACCTTTTAAGAGGAGGAAT`
0.562

Query: cleaved RNA product abundance; subject: `CGACATGTCCCGCTTCTTTCATTAATCCGTTAGCAACTGTTTTGCAATATACATTTATCTTTTAAGAGGAGGAAT`
0.505

Query: cleaved RNA product abundance; subject: `CGACATGTCCCGCTTCTTTCATTAATCCGTAAGCAACTGTTTTGCTATATACATTTACATTTTAAGAGGAGGAAT`
0.531

Query: cleaved RNA product abundance; subject: `CGACATGTCCCGCTTCTTTCATTAATCCTTTAGCAACTGTTTTGCCATATACATTTACCTTTTAAGAGGAGGAAT`
0.2

Query: cleaved RNA product abundance; subject: `CGACATGTCCCGCTTCTTTCATTAATTCGTTAGCAACTGTTTTGCTATACACATTTACCTTTTAAGAGGAGGAAT`
0.585

Query: cleaved RNA product abundance; subject: `CGACATGTCCCGCTTCTTTCATTAATCCGGTAGCAACTGTTTTGCTATATACATTTACCTTTTAAGAGGAGGAAT`
0.945

* * *

# Tested on: Bacillus subtilis
# assay.info: cleaved RNA product abundance (RNA/gDNA barcode ratio) relative to median wild-type variant (ratio to wild type); higher = more accumulation of the downstream cleavage product
# applied.conditions: experiment (reporter, strain, medium): exp 4a: truncated aprE reporter, strain BJT201 with 2% xylose (RNase J1 expressed); cleavage site: cggR-gapA (positions -7 to +36 mutated)
Exercise: state measured cleaved RNA product abundance for each of the sequences provided.
Response field accepts a number only; no unit should be typed.

Query: cleaved RNA product abundance; subject: `ACAGACGAAGGAGCCGCAAAGAAGTTATTAAGGGATTAATATTCCCTCAATATAAATATCTCTCACTTATTTAAA`
1.13

Query: cleaved RNA product abundance; subject: `ACAGACGAAGGAGCCGCAAAGGAGTTATTAAGGGATGAATAATCCCTCAATATCAATATCTCTCACTTATTTAAA`
0.134

Query: cleaved RNA product abundance; subject: `ACAGACGAAGGAGCCGCAAAGAAATTATTAAGGGATGAATAATCCCTCAATATAAATAGCTCTCACTTATTTAAA`
0.435

Query: cleaved RNA product abundance; subject: `ACAGACGAAGGAGCCGCAAAGAAGTTATTTAGGGTTGAATAATCCCTCAATATAAATATCTCTCACTTATTTAAA`
0.344

Query: cleaved RNA product abundance; subject: `ACAGACGAAGGAGCCGCAAAGAAGTTATTAAGGGATGAAAAAACCCTCAATATAAATATCTCTCACTTATTTAAA`
0.642

Query: cleaved RNA product abundance; subject: `ACAGACGAAGGAGCCGCAAAGAAGTTATTAAGGCATGAATAATCCATCAATATAAATATCTCTCACTTATTTAAA`
0.114

Query: cleaved RNA product abundance; subject: `ACAGACGAAGGAGCCGCAAAGAAGTTATTAAGGGATGAATAGTCCCTCAAAATAAATATCTCTCACTTATTTAAA`
0.31

* * *

Exercise: state measured cleaved RNA product abundance for each of the sequences provided.
# Test system: Bacillus subtilis
# assay.info: cleaved RNA product abundance (RNA/gDNA barcode ratio) relative to median wild-type variant (ratio to wild type); higher = more accumulation of the downstream cleavage product
# applied.conditions: experiment (reporter, strain, medium): exp 4a: truncated aprE reporter, strain BJT201 with 2% xylose (RNase J1 expressed); cleavage site: cggR-gapA (positions -7 to +36 mutated)
Response field accepts a number only; no unit should be typed.

Request: cleaved RNA product abundance, test system Bacillus subtilis, entry `ACAGACGAAGGAGCCGCAAAGAAGTTATTAAGGGTTGAATAATACCTCAATATAAATATCTCTCACTTATTTAAA`
0.234

Request: cleaved RNA product abundance, test system Bacillus subtilis, entry `ACAGACGAAGGAGCCGCAACGAAGTAATTAAGGGATGAATAATCCCTCAATATAAATATCTCTCACTTATTTAAA`
0.347

Request: cleaved RNA product abundance, test system Bacillus subtilis, entry `ACAGACGAAGGAGCCGCAAAGAAGTTAATAAGGGATGAATAAGCCCTCAATATAAATATCTCTCACTTATTTAAA`
0.197

Request: cleaved RNA product abundance, test system Bacillus subtilis, entry `ACAGACGAAGGAGCCGCAAAGAAGTTAGTAAGCGATGAATAATCCCTCAATATAAATATCTCTCACTTATTTAAA`
0.0715

Request: cleaved RNA product abundance, test system Bacillus subtilis, entry `ACAGACGAAGGAGCCGCAAAGAAGTTATTAAGGTATGAATAATCACTCAATATAAATATCTCTCACTTATTTAAA`
0.142

Request: cleaved RNA product abundance, test system Bacillus subtilis, entry `ACAGACGAAGGAGCCGCTAAGAAGTTATTAAGGGATGAATAATCCCTCAATGTAAATATCTCTCACTTATTTAAA`
0.0932

Request: cleaved RNA product abundance, test system Bacillus subtilis, entry `ACAGACGAAGGAGCCGCAATGAAGTAATTAAGGGATGAATAATCCCTCAATATAAATATCTCTCACTTATTTAAA`
0.364

Request: cleaved RNA product abundance, test system Bacillus subtilis, entry `ACAGACGAAGGAGCCGCAAAGAAGTTATAAAGGGACGAATAATCCCTCAATATAAATATCTCTCACTTATTTAAA`
0.326

Request: cleaved RNA product abundance, test system Bacillus subtilis, entry `ACAGACGAAGGAGCCGCAAAGAAATTATTAAGGGATGAATAGTCCCTCAATATAAATATCTCTCACTTATTTAAA`
0.937

Request: cleaved RNA product abundance, test system Bacillus subtilis, entry `ACAGACGAAGGAGCCGCTAAGAAGTTGTTAAGGGATGAATAATCCCTCAATATAAATATCTCTCACTTATTTAAA`
0.503

Request: cleaved RNA product abundance, test system Bacillus subtilis, entry `ACAGACGAAGGAGCCGCAAAGAAGTTATTAAGGGATTAATAATCCGTCAATATAAATATCTCTCACTTATTTAAA`
0.165

Request: cleaved RNA product abundance, test system Bacillus subtilis, entry `ACAGACGAAGGAGCCGCAAAAAAGTTATTAAGGGATGAATAATCCCTTAATATAAATATCTCTCACTTATTTAAA`
0.394

Request: cleaved RNA product abundance, test system Bacillus subtilis, entry `ACAGACGAAGGAGCCGCAAGGAAGTTATTAAGGCATGAATAATCCCTCAATATAAATATCTCTCACTTATTTAAA`
0.148

Request: cleaved RNA product abundance, test system Bacillus subtilis, entry `ACAGACGAAGGAGCCGCAAAGAAGTTATTAAGGGATCAATAATGCCTCAATATAAATATCTCTCACTTATTTAAA`
0.138

Request: cleaved RNA product abundance, test system Bacillus subtilis, entry `ACAGACGAAGGAGCCGCAAAGCAGTTATTAAGGGATGAATAATCCTTCAATATAAATATCTCTCACTTATTTAAA`
0.526

Request: cleaved RNA product abundance, test system Bacillus subtilis, entry `ACAGACGAAGGAGCCGCAAAGAAGTTATTAAGGCATGAATAATCACTCAATATAAATATCTCTCACTTATTTAAA`
0.0873

Request: cleaved RNA product abundance, test system Bacillus subtilis, entry `ACAGACGAAGGAGCCGCAAAGGAGTTATTAAGGAATGAATAATCCCTCAATATAAATATCTCTCACTTATTTAAA`
0.144

Request: cleaved RNA product abundance, test system Bacillus subtilis, entry `ACAGACGAAGGAGCCGCAAAGAACTTATTAAGGGATGAATAATCCCTCGATATAAATATCTCTCACTTATTTAAA`
0.269

Request: cleaved RNA product abundance, test system Bacillus subtilis, entry `ACAGACGAAGGAGCCGCAAAGAAGTAATTAAGGGATGAATAATCCCTAAATATAAATATCTCTCACTTATTTAAA`
0.234

Request: cleaved RNA product abundance, test system Bacillus subtilis, entry `ACAGACGAAGGAGCCGCAAAGAAGTTAATAAGGGATGAATAATCCCTGAATATAAATATCTCTCACTTATTTAAA`
0.533

Request: cleaved RNA product abundance, test system Bacillus subtilis, entry `ACAGACGAAGGAGCCGCAACAAGTTATTAAGGGATGAATAATCCCTCAATATAAATATCTCTCACTTATTTAAAG`
0.581

Request: cleaved RNA product abundance, test system Bacillus subtilis, entry `ACAGACGAAGGAGCCGCAAAGAAGTTATTATGGCATGAATAATCCCTCAATATAAATATCTCTCACTTATTTAAA`
0.184

Request: cleaved RNA product abundance, test system Bacillus subtilis, entry `ACAGACGAAGGAGCCGCAAACAAGATATTAAGGGATGAATAATCCCTCAATATAAATATCTCTCACTTATTTAAA`
0.827

Request: cleaved RNA product abundance, test system Bacillus subtilis, entry `ACAGACGAAGGAGCCGCAAAGATGTTATTAAGGGATGAATAATCCCTCATTATAAATATCTCTCACTTATTTAAA`
0.411

Request: cleaved RNA product abundance, test system Bacillus subtilis, entry `ACAGACGAAGGAGCCGCGAAGAAGTTATTAAAGGATGAATAATCCCTCAATATAAATATCTCTCACTTATTTAAA`
0.258

Request: cleaved RNA product abundance, test system Bacillus subtilis, entry `ACAGACGAAGGAGCCGCAAAGAAGTTATTAAGGGATGAATAATCCCAGAATATAAATATCTCTCACTTATTTAAA`
0.361

Request: cleaved RNA product abundance, test system Bacillus subtilis, entry `ACAGACGAAGGAGCCGCAAAGATGTTATTAAGGGATGAATAATCCCTCAAAATAAATATCTCTCACTTATTTAAA`
0.502

Request: cleaved RNA product abundance, test system Bacillus subtilis, entry `ACAGACGAAGGAGCCGCAAAGAAGTTATTAAGGGATGAACAATCCCACAATATAAATATCTCTCACTTATTTAAA`
0.364

Request: cleaved RNA product abundance, test system Bacillus subtilis, entry `ACAGACGAAGGAGCCGCAAATATGTTATTAAGGGATGAATAATCCCTCAATATAAATATCTCTCACTTATTTAAA`
1.1

Request: cleaved RNA product abundance, test system Bacillus subtilis, entry `ACAGACGAAGGAGCCGCAAAGTAGTTATTAAGGGATGAATAATCCCTCAATTTAAATATCTCTCACTTATTTAAA`
0.221
